tested on: HCT-15 colon; experiment: NCI tumour cell line growth inhibition, 48 h
readout: TGI (µM)
Lab book: enter the figure in µM, no units written.

[in] Consider the molecule shown here: COC(=O)C(CCSC)NC(=O)CNC(=O)CSc1nnc(COc2ccc(Cl)cc2)n1-c1ccccc1 (centres undefined) What is its recorded TGI?
[out] 37.8

[in] Recorded TGI for CC1OC(OC2C(O)CC(OC3C(O)CC(OC4CCC5(C)C(CCC6C5CC(O)C5(C)C(C7=CC(=O)OC7)CCC65O)C4)OC3C)OC2C)CC(O)C1O (centres undefined) , please?
[out] 0.293

[in] Could you tell me which TGI is on file for CCN1CCC(O)(/C=C/c2ccccc2C)C(C(=O)/C=C/c2ccccc2C)C1 (centres undefined) ?
[out] 3.8

[in] What does the data say about its TGI? Entry: O=C(Nc1cccc(-n2cc(-c3ccncc3)c(-c3cc(O)cc(Cl)c3)n2)c1)c1cc(C(F)(F)F)cc(C(F)(F)F)c1
[out] 14.7

----------
Would you mind telling me the reported TGI of each entry?
system: M14 melanoma; test: NCI tumour cell line growth inhibition, 48 h
Please reply with the bare figure in µM and do not write the unit itself.

[in] Requested read-out TGI, target or system M14 melanoma, entry O=[N+]([O-])c1ccc(C(=S)Nc2ccccc2)o1
[out] 14

[in] Notebook: pull reported TGI for M14 melanoma, entry Clc1cc(Cl)cc(N=C/C=C/Nc2cc(Cl)cc(Cl)c2)c1
[out] 47.6

[in] Enter reported TGI observed with M14 melanoma for O=[N+]([O-])/C(C(Cl)=C(Cl)Cl)=C(/Cl)SCc1ccccc1
[out] 3.58

[in] What measured TGI is associated with COC(=O)[C@H]1CCCN1C(=O)[C@H]1CCCN1C(=O)[C@@H](Cc1c[nH]c2ccccc12)NC(=S)Nc1cc(C(F)(F)F)cc(C(F)(F)F)c1 on M14 melanoma?
[out] 4.19

[in] Could you share what TGI was measured for O=C(c1cccs1)N(C(=S)OCCOc1ccccc1)c1ccccc1 , tested on M14 melanoma?
[out] 37.1

[in] Look up TGI with M14 melanoma for this compound: COc1ccc2c(c1)c1c(n2CCN(C)C)-c2ccccc2CC1
[out] 29.3

[in] Query for M14 melanoma: what TGI does the record show for CC(N)Cc1ccc(Cl)c(Cl)c1 (stereo not given) ?
[out] 33.9

[in] Value wanted: TGI (M14 melanoma) of entry COC(=O)c1c(C)n([O-])c2cc(Cl)c(Cl)cc2[n+]1=O
[out] 76.6

----------
test system: NCI-H226 lung; test: NCI tumour cell line growth inhibition, 48 h
readout: TGI

[in] Fill in the blank: the reported TGI of CC1=NC(=Cc2ccccc2O)C(=O)N1n1c(-c2ccccc2)nc2ccccc2c1=O is ____.
[out] > 100 µM

[in] Given the entry CCOC(=O)/C=C/CCO[Si](C)(C)C(C)(C)C , report its measured TGI.
[out] > 100 µM

[in] Could you tell me which TGI is on file for c1ccc(CCc2cccnc2)nc1 ?
[out] > 100 µM

[in] # get_value(readout='TGI', item= O=c1[nH]nc(Cc2ccccc2)n1C1CCCC1 )
[out] > 100 µM

[in] Quick one: TGI of Cc1cc(N(CCC#N)CCC#N)ccc1/C(N=Nc1cccc(Cl)c1)=N/NC(=O)c1cc(Cl)ccc1O ?
[out] 84.2 µM

[in] For the compound shown here, Nc1nc(O)c2ncn([C@H]3CC[C@@H](CO)O3)c2n1 , give the reported TGI.
[out] > 100 µM

----------
test system: RPMI-8226 leukemia; test: NCI tumour cell line growth inhibition, 48 h
readout: TGI (µM)
Report as a plain number; the unit µM is understood.

[in] Entry CC1(C)OCC([C@H]2O[C@@H](CC(=S)NCCCCCCCCCCCCNC(=S)C[C@H]3O[C@@H](C4COC(C)(C)O4)[C@H]4OC(C)(C)O[C@H]43)[C@H]3OC(C)(C)O[C@H]32)O1 (some centres undefined) has what TGI?
[out] 68.8

[in] Entry under review: O=C(CC1(O)C(=O)N(Cc2ccccc2)c2ccccc21)c1ccc(C(=O)NCC2CCC3(CC2)OOC2(CCCCC2)OO3)cc1 (centres undefined) . Reported TGI?
[out] 3.43

----------
system: SK-MEL-5 melanoma; assay: NCI tumour cell line growth inhibition, 48 h; in the data active = GI50 below about 0.43 µM; inactive = the rest
The categories you may choose from are active, inactive

[in] Short answer needed: outcome of this test for Oc1cccc2ccc(N/N=C/c3cc(CN4CCOCC4)c(O)c4ncccc34)nc12 ?
[out] active

[in] Just curious, what result did Nc1nc(Nc2ccccc2SSc2ccccc2Nc2nc(N)nc(C(Cl)(Cl)Cl)n2)nc(C(Cl)(Cl)Cl)n1 get here?
[out] inactive

[in] Can you look up the reported call for N#CCCN1C/C(=C/c2ccc(Cl)cc2)C(=O)/C(=C/c2ccc(Cl)cc2)C1 for me?
[out] inactive

[in] # fetch the recorded call for COc1ccc(NC(=O)C2CCC(CNS(=O)(=O)c3ccccc3)CC2)cc1OC (stereo not drawn) here
[out] inactive

[in] For this molecule, state the assay outcome: CC(=O)NCc1cccc(C#Cc2cncnc2Nc2ccc(OCc3cccc(F)c3)c(Cl)c2)c1
[out] inactive

[in] Check the results log: what was the call for Oc1c(I)cc(I)c2cccnc12 ?
[out] inactive

[in] Tell me the assay call for N#CC1=C(/N=C/c2ccccc2)Oc2c(ccc3ccccc23)C1c1ccccc1 (stereo not drawn) please.
[out] active

[in] Each molecule tested received a call. Report the one for COc1cc2nc(-c3cc(F)ccc3O)nc(N[C@@H]3CNC[C@H]3C(C)(C)O)c2cc1OC .
[out] inactive

[in] Any idea what this test logged for O=C(/C=C/c1cccc(O)c1)c1cccc(-n2cc(-c3ccccc3)[nH]c2=O)c1 ?
[out] inactive

[in] Per the records of this test, what outcome belongs to C[C@]12CC[C@@H]3c4cc(OC(F)F)c(OS(N)(=O)=O)cc4CC[C@H]3[C@@H]1CC[C@@H]2O ?
[out] active

[in] Field: outcome | Entry: NS(=O)(=O)c1ccc(-c2cc3ccncc3cc2OCc2ccccc2)cc1
[out] inactive

[in] Tell me the assay call for c1ccc2c(c1)Nc1ccncc1S2 please.
[out] inactive

[in] Look up the recorded call for COc1ccc(/C=C(\C#N)n2nnc3c(F)cccc32)cc1 in this test.
[out] inactive

----------
test system: SK-MEL-28 melanoma; test: NCI tumour cell line growth inhibition, 48 h
Task for the reader: assign each of the following compounds its reported TGI.
Report the value in µM with no unit label.

[in] Return reported TGI; argument: COC(=O)[C@H]1CCCN1C(=O)[C@H]1CCCN1C(=O)[C@@H](Cc1c[nH]c2ccccc12)NC(=S)Nc1cc(C(F)(F)F)cc(C(F)(F)F)c1
[out] 4.17

[in] I have this compound here, O=C(c1cccs1)N(C(=S)OCCOc1ccccc1)c1ccccc1 , and I need its recorded TGI.
[out] 55.9

[in] What does the data say about its TGI? Entry: Cc1cc(N(CCC#N)CCC#N)ccc1/C(N=Nc1cccc(Cl)c1)=N/NC(=O)c1cc(Cl)ccc1O
[out] 49.9

[in] Give the measured TGI of Cc1cccc2c3c(sc12)C(c1ccc(Cl)cc1)C(C#N)=C(N)O3 (centres undefined) .
[out] 20.7

[in] Given O=[N+]([O-])c1ccc(N2CCOCC2)c2c1no[n+]2[O-] , state its recorded TGI.
[out] 16

----------
system: HS 578T breast; assay: NCI tumour cell line growth inhibition, 48 h; in the data active = GI50 below about 0.43 µM; inactive = the rest
Where a SMILES comes first, the peptide text is derived from it. The star is where a group is joined. Palmitoyl = CCCCCCCCCCCCCCCC(=O)*
Give your call using only these classes: active, inactive

[in] Check the results log: what was the call for Cc1ccc(-c2nc([P+](c3ccccc3)(c3ccccc3)c3ccccc3)c(S(=O)(=O)c3ccc(C)cc3)o2)cc1 ?
[out] inactive

[in] // param item: CCN(CC)CCCCCCNc1cc(OC)cc2cccnc12 ; yields the recorded call
[out] inactive

[in] For this compound, state the assay outcome: CC1=C(CC(=O)c2cccc([N+](=O)[O-])c2)C(=O)c2ccccc2C1=O
[out] inactive

[in] For Cc1cccc2c3c(sc12)C(c1ccc(Cl)cc1)C(C#N)=C(N)O3 (stereo not drawn) , which call appears in the assay record?
[out] active

[in] What was the test verdict on O=C(Nc1cccc(-n2cc(-c3ccncc3)c(-c3cc(O)cc(Cl)c3)n2)c1)c1cc(C(F)(F)F)cc(C(F)(F)F)c1 ?
[out] inactive

[in] What was the test verdict on N#CCN1CCn2c1nsc2=S ?
[out] inactive

[in] Could you check what this test reported for C(=N/N(Cc1ccccc1)Cc1ccccc1)/c1ccccc1 ?
[out] inactive

[in] Could you check what this test reported for CCCCCCCCCCCCCCCC(=O)N1CCCC1C(=O)NCC(=O)NC(Cc1ccccc1)C(=O)NC(C)C(=O)NC(CO)C(=O)NC(Cc1ccc(O)cc1)C(=O)NC(CCCCN)C(=O)NC(CC(C)C)C(=O)NC(CCCN=C(N)N)C(=O)N1CCCC1C(=O)NCC(N)=O (stereo not drawn) (Palmitoyl-PGFASYKLRPG-NH2; configuration not given here) ?
[out] inactive

[in] For Nc1nc(Nc2ccccc2SSc2ccccc2Nc2nc(N)nc(C(Cl)(Cl)Cl)n2)nc(C(Cl)(Cl)Cl)n1 , which call appears in the assay record?
[out] inactive

[in] Record lookup: outcome of this test for CCCCCCNC(=O)Oc1ccc(/C(=C(\C)c2ccc(Cl)cc2)c2ccc(OCCN3CCCCC3)cc2)cc1 ?
[out] inactive

[in] Test call for this compound, please: c1ccc2c(c1)Nc1ccncc1S2
[out] inactive

[in] Kindly provide the recorded test outcome for the following compound: c1ccc2cc(-c3n(Cc4ccc5ccccc5n4)c4ccccc4[n+]3Cc3ccc4ccccc4n3)ccc2c1
[out] active

[in] Field: outcome | Entry: Oc1c(I)cc(I)c2cccnc12
[out] inactive

[in] // return assay outcome for C=CCN1CC(=O)N2[C@@H](Cc3ccc(O)cc3F)C(=O)N(Cc3cccc(N4CC(N5CCN(CC)CC5)C4)n3)C[C@@H]2N1C(=O)NCc1ccccc1
[out] active

[in] Hi team, can someone confirm the assay call for Oc1cccc2ccc(N/N=C/c3cc(CN4CCOCC4)c(O)c4ncccc34)nc12 ?
[out] active

[in] For O=C(CCCCCCN1CC(=O)N2[C@@H](c3ccc(Cl)c(Cl)c3)c3[nH]c4ccccc4c3C[C@H]2C1=O)NO , which call appears in the assay record?
[out] inactive

[in] Hi, do you know how N#CC1=C(/N=C/c2ccccc2)Oc2c(ccc3ccccc23)C1c1ccccc1 (stereo not drawn) came out in this test?
[out] active

[in] What did this assay record as the result for N#CCCN1C/C(=C/c2ccc(Cl)cc2)C(=O)/C(=C/c2ccc(Cl)cc2)C1 ?
[out] inactive
